Listed next: entries and their corresponding melting point.

Example cases with answers are listed next.
> print(dat)
                                   molecule  experimental.result
1                        CNc1nc2ccccc2n1CCO             > 200 °C
2           OC(c1ccc2c(c1)CCN2)(C(F)F)C(F)F        130 to 134 °C
3  O=C1CCC(N2Cc3c(OCc4ccc5ccccc5n4)cccc3C2=O)C(=O)N1 (stereo unspecified)        269 to 271 °C
4  O=S(c1ccccc1)c1ccc2c(c1)C(O)C(Br)CCO2 (stereo unspecified)        147 to 149 °C
5  COc1ccc(C(=O)c2cnn(C)c2O)c(Cl)c1N=C1CCCCS1=O (stereo unspecified)          89 to 91 °C

Qu. Data request, read-out melting point, for COc1cc(OC)c2c(-c3cc(F)cc(F)c3)coc2c1
Ans. 102 to 103 °C

---

Listed next: entries and their corresponding melting point.

Example cases with answers are listed next.
> print(dat)
                                   molecule  measured.parameter  experimental.result
1  COc1ccc2nc(-c3cc(C)c(OCCO)c(C)c3)n(-c3ccc(Br)cc3)c(=O)c2c1       melting point        160 to 162 °C
2           O=C(O)COc1nc2cc(Cl)c3cccnc3c2o1       melting point        214 to 215 °C
3  CCCCN1C(=O)NC(CCC(=O)O)C1=O (stereo unspecified)       melting point               130 °C
4  CC(C)(Oc1ccc(CC(=O)Nc2cc(Cl)c(Cl)c(Cl)c2)cc1)C(=O)O       melting point               160 °C
5                       Oc1ccc2nc(CCl)oc2c1       melting point        148 to 154 °C

Qu. Data request, read-out melting point, for CC(Br)C(=O)OCN1C(=O)NC(c2ccccc2)(c2ccccc2)C1=O (stereo unspecified)
Ans. 112 to 115 °C

Qu. Data request, read-out melting point, for N#Cc1c(-c2cc3ccccc3s2)nn(-c2ccccc2)c1N
Ans. 260 to 262 °C

---

Listed next: entries and their corresponding melting point.

Example cases with answers are listed next.
> print(dat)
                                   molecule  measured.parameter  experimental.result
1  COC1C(OC(=O)c2ccc(N)cc2)C=C(C)C(=O)CC1(C)C (stereo unspecified)       melting point        159 to 161 °C
2  COc1ccc(C2NC(=O)C(C)S2)cc1OC (stereo unspecified)       melting point        151 to 152 °C
3        CC(C)(C)COc1ccc([N+](=O)[O-])cc1Br       melting point          86 to 88 °C
4  COc1cc(-c2ccc(C(C)C)cc2)c(C)c2oc(=O)c(C)c(C)c12       melting point               172 °C
5  CCC1(CC)c2cc(CO)c(CO)cc2C(CC)(CC)N1Cc1ccccc1       melting point        155 to 158 °C

Qu. Data request, read-out melting point, for COc1cc2c(cc1OC)C(=O)C(Br)C2 (stereo unspecified)
Ans. 159 to 160 °C

Qu. Data request, read-out melting point, for Nc1cc(S(=O)(=O)CCO)ccc1Nc1ccc(N)c(S(=O)(=O)O)c1
Ans. 254 °C

Qu. Data request, read-out melting point, for O=c1nc(-c2ccccc2)c2cc(Cl)ccc2n1CC(F)(F)F
Ans. 184 to 185 °C

Qu. Data request, read-out melting point, for N#CC(=C(Nc1cc(C(F)(F)F)cc(C(F)(F)F)c1)NC1CCC1)S(=O)(=O)c1ccc(Cl)cc1
Ans. 190 to 193 °C

Qu. Data request, read-out melting point, for O=C(NCc1ccc(-c2n[nH]c3c2Cc2ccccc2-3)s1)N1CCOCC1
Ans. 240 to 247 °C

---

MEASURED_PARAMETER: melting point

Example cases with answers are listed next.
> print(dat)
                                   molecule  experimental.result
1             CCCNC(=O)NS(=O)(=O)c1ccccc1Br        218 to 219 °C
2  CC(=O)Nc1cc(O)cc(C(C)CCCc2ccccc2)c1 (stereo unspecified)        128 to 130 °C
3  O=C(Nc1ccc(Oc2ccnc(N3CCC3)n2)c2ccccc12)c1cc(F)cc(N2CCOCC2)c1        196 to 197 °C
4   O=c1[nH][nH]c(=O)c2c(O)c3ccc(Br)cc3nc12               278 °C
5  Cc1cc2[nH]cc(CSCC(=O)N3CC=C(c4ccccc4)CC3)c2cc1C        167 to 169 °C

Qu. Data request, read-out melting point, for COc1c(C(C)(C)C)cc(P(c2cc(C(C)(C)C)c(OC)c(C(C)(C)C)c2)c2ccccc2Br)cc1C(C)(C)C
Ans. 142 to 143 °C

Qu. Data request, read-out melting point, for CCOC(=O)c1cnn2c1nc(NCCCN(C)C)c1cnc3c(cnn3CC)c12
Ans. 212 to 215 °C

Qu. Data request, read-out melting point, for CCCCCCCCCc1ccc(C(CCCCC(=O)O)SCCC(=O)O)cc1 (stereo unspecified)
Ans. 61 to 62 °C

Qu. Data request, read-out melting point, for COC(=O)c1ccc(OC)c(NC(=N)c2ccc(F)cc2F)c1
Ans. 120 °C

Qu. Data request, read-out melting point, for CN1C(=O)CCC1(O)c1ccc(Cl)c(S(N)(=O)=O)c1 (stereo unspecified)
Ans. 147 to 149 °C

Qu. Data request, read-out melting point, for CC(C)(C)N(NC(=O)c1ccccc1)C(=O)Cc1ccccc1
Ans. 167 to 169 °C

Qu. Data request, read-out melting point, for CNc1nc(N)nc2c1ncn2C1CC(F)C(CO)O1 (stereo unspecified)
Ans. 111 °C

---

Listed next: entries and their corresponding melting point.

> print(dat)
                                   compound  measured.parameter  experimental.result
1  O=C(O)C1CCc2c([nH]c3ccc(O)cc23)C1 (stereo unspecified)       melting point        255 to 257 °C
2  CC[C@@]12C[C@@](C)(O)[C@](O)(c3ccccc3)C[C@H]1CCc1cc(OCC(=O)O)ccc12       melting point        190 to 191 °C
3                      CCCCCOc1cccc(N)c1C#N       melting point          70 to 73 °C
4  CC(=O)c1cc(NS(C)(=O)=O)c(Sc2ccc(F)cc2F)cc1[N+](=O)[O-]       melting point        169 to 170 °C

Qu. Data request, read-out melting point, for COc1cc2c(c(OC)c1OC)C(=O)CC2
Ans. 114 to 115 °C

Qu. Data request, read-out melting point, for CC(C)(Cc1cc2cc(OCc3ccc4ccccc4n3)ccc2n1Cc1ccc(Cl)cc1)C(=O)O
Ans. 193 to 194 °C

---

MEASURED_PARAMETER: melting point

> print(dat)
                                   molecule  measured.parameter  experimental.result
1  CC1CC(=O)NN=C1c1ccc(N)cc1 (single isomer, unassigned; (-))       melting point        203 to 204 °C
2  Cc1ccc(-c2nnc(N3CCC(=O)CC3)nc2-c2ccc(C)cc2)cc1       melting point        197 to 199 °C
3  ClCCCCOc1ccc(C2c3ccc(OCc4ccccc4)cc3OCC2c2ccccc2)cc1 (stereo not given)       melting point        94 to 97.5 °C
4  COc1ccc(-n2c(=O)cc(C(F)(F)F)n(C)c2=O)c2c1CC(C)(C)O2       melting point        201 to 203 °C
5  COc1cccc(Cn2cnc3c(-c4ccco4)nc(Cl)nc32)c1       melting point        160 to 161 °C

Qu. Data request, read-out melting point, for CC(C)CCCC(C)C1CCC2C3CCC4=CC(=O)C=CC4(C)C3CCC12C (stereo not given)
Ans. 50 to 57 °C

Qu. Data request, read-out melting point, for O=C1CCCc2[nH]c3ccc(OCc4ccccc4)cc3c21
Ans. 235 to 237 °C

Qu. Data request, read-out melting point, for CCCCCCCCCCCCc1nnn(C(C(=O)Nc2c(OC)cc(OC)cc2OC)c2ccccc2)n1 (stereo not given)
Ans. 141 to 145 °C

Qu. Data request, read-out melting point, for O=C1CCCCc2cc(OCC3CCCCC3)ccc21
Ans. 86 to 88 °C

Qu. Data request, read-out melting point, for FC(F)c1cc(-c2ccc(C(F)(F)F)cc2)nc2c(-c3ccncc3)cnn12
Ans. 222 °C
